- measurement.notes: Ex vivo biodistribution in tissues by gamma counting
- Parameters: species or system rat
- stated.conditions: Lewis, rat, in vivo, total radioactivity, rat, 90 min p.i., mean ± SD; read-out: Biodistribution: Liver
outcome.measure: tissue uptake at 1.5 h (%ID/g)
Numbers only, in %ID/g.

Report tissue uptake at 1.5 h for N=C(N)NCCC[C@@H]1NC(=O)[C@H](CCCCNC(=O)CCP(=O)(O)CN2CCN(CP(=O)(O)CCC(=O)NCCCC[C@@H]3NC(=O)[C@@H](Cc4ccccc4)NC(=O)[C@H](CC(=O)O)NC(=O)CNC(=O)[C@H](CCCNC(=N)N)NC3=O)CCN(CP(=O)(O)CCC(=O)NCCCC[C@@H]3NC(=O)[C@@H](Cc4ccccc4)NC(=O)[C@H](CC(=O)O)NC(=O)CNC(=O)[C@H](CCCNC(=N)N)NC3=O)CC2)NC(=O)[C@@H](Cc2ccccc2)NC(=O)[C@H](CC(=O)O)NC(=O)CNC1=O [^68Ga-TRAP(RGD)3, ^68Ga-TRAP(cyclo(RGDfK))3, metal not drawn]
0.524

---

- measurement.notes: Ex vivo biodistribution in tissues by gamma counting
- Set-up: species or system rat
- stated.conditions: Lewis, rat, in vivo, total radioactivity, Biodistribution: Serum
outcome.measure: tissue uptake at 1.5 h
Report the figure along with its unit, number first.

Give reported tissue uptake at 1.5 h value for N=C(N)NCCC[C@@H]1NC(=O)[C@H](CCCCNC(=O)CCC(C(=O)O)N2CCN(CC(=O)O)CCN(CC(=O)O)CC2)NC(=O)[C@@H](Cc2ccc(O)cc2)NC(=O)[C@H](CC(=O)O)NC(=O)CNC1=O (stereo partly shown) [^68Ga-NODAGA-RGD, ^68Ga-NODAGA-cyclo(RGDyK), metal not drawn]
0.094 %ID/g

---

- measurement.notes: Ex vivo biodistribution in tissues by gamma counting
- Design: species or system rat
- stated.conditions: Lewis, rat, in vivo, total radioactivity, rat, 90 min p.i., mean ± SD; read-out: Biodistribution: Remote myocardium
outcome.measure: tissue uptake at 1.5 h (%ID/g)
Give bare numbers, in %ID/g.

Provide measured tissue uptake at 1.5 h value, entry: N=C(N)NCCC[C@@H]1NC(=O)[C@H](CCCCNC(=O)CCP(=O)(O)CN2CCN(CP(=O)(O)CCC(=O)NCCCC[C@@H]3NC(=O)[C@@H](Cc4ccccc4)NC(=O)[C@H](CC(=O)O)NC(=O)CNC(=O)[C@H](CCCNC(=N)N)NC3=O)CCN(CP(=O)(O)CCC(=O)NCCCC[C@@H]3NC(=O)[C@@H](Cc4ccccc4)NC(=O)[C@H](CC(=O)O)NC(=O)CNC(=O)[C@H](CCCNC(=N)N)NC3=O)CC2)NC(=O)[C@@H](Cc2ccccc2)NC(=O)[C@H](CC(=O)O)NC(=O)CNC1=O [^68Ga-TRAP(RGD)3, ^68Ga-TRAP(cyclo(RGDfK))3, metal not drawn]
0.154

---

- measurement.notes: Ex vivo biodistribution in tissues by gamma counting
- Set-up: species or system rat
- stated.conditions: Lewis, rat, in vivo, total radioactivity, Biodistribution: Apical myocardium
outcome.measure: tissue uptake at 1.5 h (%ID/g)
Answers are plain numbers, in %ID/g.

# return recorded tissue uptake at 1.5 h for input N=C(N)NCCC[C@@H]1NC(=O)[C@H](CCCCNC(=O)CCC(C(=O)O)N2CCN(CC(=O)O)CCN(CC(=O)O)CC2)NC(=O)[C@@H](Cc2ccc(O)cc2)NC(=O)[C@H](CC(=O)O)NC(=O)CNC1=O (stereo partly shown) [^68Ga-NODAGA-RGD, ^68Ga-NODAGA-cyclo(RGDyK), metal not drawn]
0.156
